For each of the compounds below, state its residual activity.
- Target Entity: UniProt P17948
- Sequence (P17948 whole entry, looked up): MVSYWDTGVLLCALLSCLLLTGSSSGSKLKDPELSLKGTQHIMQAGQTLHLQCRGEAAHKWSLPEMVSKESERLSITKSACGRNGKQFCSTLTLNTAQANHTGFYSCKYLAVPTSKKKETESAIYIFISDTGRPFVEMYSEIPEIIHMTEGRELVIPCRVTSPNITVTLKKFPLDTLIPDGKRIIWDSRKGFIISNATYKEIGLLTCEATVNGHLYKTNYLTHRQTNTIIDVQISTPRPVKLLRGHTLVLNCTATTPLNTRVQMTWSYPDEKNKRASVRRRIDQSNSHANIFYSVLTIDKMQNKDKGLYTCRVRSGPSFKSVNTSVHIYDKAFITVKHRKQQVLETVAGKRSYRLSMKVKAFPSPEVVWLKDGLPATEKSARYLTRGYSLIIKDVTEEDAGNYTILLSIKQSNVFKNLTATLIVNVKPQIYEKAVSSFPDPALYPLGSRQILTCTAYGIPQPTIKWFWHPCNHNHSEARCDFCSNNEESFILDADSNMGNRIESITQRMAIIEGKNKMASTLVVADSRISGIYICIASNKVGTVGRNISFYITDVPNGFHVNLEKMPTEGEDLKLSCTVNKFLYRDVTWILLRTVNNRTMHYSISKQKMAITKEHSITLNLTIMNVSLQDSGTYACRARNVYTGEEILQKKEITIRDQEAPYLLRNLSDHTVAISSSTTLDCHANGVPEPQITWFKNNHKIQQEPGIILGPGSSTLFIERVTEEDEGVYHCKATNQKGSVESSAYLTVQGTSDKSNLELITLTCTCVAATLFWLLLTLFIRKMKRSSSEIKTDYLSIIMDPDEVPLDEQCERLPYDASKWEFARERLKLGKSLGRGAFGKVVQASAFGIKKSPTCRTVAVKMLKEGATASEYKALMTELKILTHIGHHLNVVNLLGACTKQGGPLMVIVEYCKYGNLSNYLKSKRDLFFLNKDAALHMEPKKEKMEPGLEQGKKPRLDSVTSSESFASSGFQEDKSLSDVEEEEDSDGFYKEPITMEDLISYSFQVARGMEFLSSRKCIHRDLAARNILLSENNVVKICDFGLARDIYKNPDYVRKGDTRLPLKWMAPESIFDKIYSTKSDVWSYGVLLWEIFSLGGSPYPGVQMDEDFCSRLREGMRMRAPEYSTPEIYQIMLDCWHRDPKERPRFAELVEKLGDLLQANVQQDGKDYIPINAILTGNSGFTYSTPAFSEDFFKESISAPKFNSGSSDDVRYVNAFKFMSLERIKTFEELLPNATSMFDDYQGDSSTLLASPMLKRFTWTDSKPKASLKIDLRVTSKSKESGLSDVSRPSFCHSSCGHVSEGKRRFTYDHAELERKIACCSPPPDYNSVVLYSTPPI
- Protocol Notes: radiometric filter-binding kinase assay
- Study Conditions: compound 1.0 µM
One number for each entry, in %.

Consider the following illustrative entries.
| Compound | Measurement |
| --- | --- |
| COc1cc(O)c2c(c1)[C@H]1OC1C[C@H](O)[C@H](O)C(=O)/C=C\C[C@H](C)OC2=O (stereo not given in full) | 3 |
| NC(=O)c1cc(-c2ccnc(NC3CCCCC3)c2)nc(N2CCNCC2)c1 | 88 |
| CCc1cncnc1N1CCN(Cc2nc3cc(C(F)(F)F)ccc3[nH]2)CC1 | 83 |

Could I get residual activity for every one of these entries?
1. Oc1ccc2ccccc2c1SSc1c(O)ccc2ccccc12
2. COc1ccc(N(C(=O)Nc2c(C)cccc2C)c2cc(Nc3ccc(N4CCN(C)CC4)cc3)ncn2)c(OC)c1

[6, 15]

These data points were gathered from the kinase profiling compilation of Christmann-Franck et al. (2016).
